src = patent US8557800B2

# Test system: MCF-10A non-transformed human breast epithelial cells
# Procedure details: Cytotoxicity, SRB binding assay
# Assay type: cell-based
# Condition description: inhibition of cell proliferation, 48 h, read-out: MCF-10A IC50
Could you please report measured IC50 for the items listed next?
# do not omit the unit; it follows the number

Compound | IC50
CCn1c2ccccc2c2cc(NC(C)C34CC5CC(CC(c6ccc(Cl)cc6)(C5)C3)C4)ccc21 (stereo not drawn) [Compound 114] | 9 µM
O=C(O)C12CC3CC(C1)CC(c1ccc(Cl)cc1)(C3)C2 [Compound 123] | 95 µM

Here are 8 compounds. What values of IC50 were reported for them?
1. Clc1ccc(C23CC4CC(CC(CNCCN5CCOCC5)(C4)C2)C3)cc1 [Compound 87]
2. CC(NC1CCN(C)CC1)C12CC3CC(CC(c4ccc(F)cc4)(C3)C1)C2 (stereo not drawn) [Compound 106]
3. O=C(NCCc1ccncc1)C12CC3CC(C1)CC(c1ccc(Cl)cc1)(C3)C2 [Compound 64]
4. O=C(NCc1ccncc1)C12CC3CC(C1)CC(c1ccc(Cl)cc1)(C3)C2 [Compound 62]
5. COc1ccc(CCNC(=O)C23CC4CC(C2)CC(c2ccc(Cl)cc2)(C4)C3)cc1 [Compound 41]
6. O=C(O)C12CC3CC(C1)CC(c1ccccc1)(C3)C2 [Compound 121, 3-Phenyl-adamantane-1-carboxylic acid]
7. O=C(Nc1nc(-c2ccc(Cl)cc2)cs1)C12CC3CC(C1)CC(c1ccc(Cl)cc1)(C3)C2 [Compound 70]
8. CC(N)C12CC3CC(CC(c4ccc(Cl)cc4)(C3)C1)C2 (stereo not drawn) [Compound 91]

[A]
1: 33 µM; 2: 6 µM; 3: 20 µM; 4: 21 µM; 5: 71 µM; 6: 176 µM; 7: 103 µM; 8: 4 µM
